List of pKi values.
# System: human H3 receptor (Homo sapiens (Human))
# Sequence (Q9Y5N1 whole entry): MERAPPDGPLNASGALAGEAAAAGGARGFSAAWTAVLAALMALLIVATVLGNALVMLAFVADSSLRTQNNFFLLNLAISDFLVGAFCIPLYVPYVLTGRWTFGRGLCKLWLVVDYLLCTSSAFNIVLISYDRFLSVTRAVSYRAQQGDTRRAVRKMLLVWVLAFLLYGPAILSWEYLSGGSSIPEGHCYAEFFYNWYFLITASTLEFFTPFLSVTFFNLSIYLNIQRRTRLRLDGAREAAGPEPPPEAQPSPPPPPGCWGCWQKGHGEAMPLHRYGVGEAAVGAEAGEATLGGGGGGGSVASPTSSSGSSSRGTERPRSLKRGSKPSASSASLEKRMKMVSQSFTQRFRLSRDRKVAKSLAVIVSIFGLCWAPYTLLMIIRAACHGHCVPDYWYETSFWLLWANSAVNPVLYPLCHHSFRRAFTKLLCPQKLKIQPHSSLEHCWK
# Method: Functional assay II, [35S]GTPγS assay
# Reported conditions: membranes from CHO cells stably expressing the human H3 receptor
pKi: −log10 of the molar value. Counter-ions that a name gives are not always drawn.
Test readout: pKi

> print(dat)
                                   compound                                    system  data.value
1  O=C(O)C(F)(F)F.c1cc2nc(N3CCN(C4CC4)CC3)sc2cc1CN1CCCC1 [Example 17, trifluoroacetate]  human H3 receptor (Homo sapiens (Human))        8.74
2  c1cc2nc(N3CCN(C4CC4)CC3)sc2cc1CNC1CC1 [Example 27, trifluoroacetate]  human H3 receptor (Homo sapiens (Human))        9.05
